Experimental details: human hepatoma cell viability loss – ATP luminescence, cytotoxicity control for P. falciparum antimalarial project, primary screen (AID 2303);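 further: 0% = DMSO wells and 100% = digitonin-killed cells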
Assay conditions: HepG2 viability, 24-48 h, at 10 µM, active compounds read high
Readout kind: inhibition (%)
Numbers only here, please. The scale is %.

For record O=C(Nc1ccc(C(=O)OCC(c2ccccc2)c2ccccc2)cc1)N[C@@H](Cc1ccc(O)cc1)C(=O)NC1CCN(Cc2ccc(O)cc2)C1 (stereo partly drawn) the listed inhibition is -9

---

Experimental details: inhibition of 3D7 malaria parasite growth – strain 3D7 (AID 2306);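 further: 0% = DMSO wells and 100% = chloroquine plus artemisinin control wells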
Assay conditions: P. falciparum 3D7 erythrocytic growth, LDH absorbance, 72 h; at 2 µM; active compounds read high
Readout kind: growth inhibition (%)
Express your answer in %, writing the number without its unit.

Example compounds with recorded growth inhibition:
# Compound, Readout kind, Value observed
measured = [
    ("COc1cc(C(=O)N2COCC(CCCN3CCC(N4CCCC4)CC3)(c3ccc(Cl)c(Cl)c3)C2)cc(OC)c1OC (stereo not given)", "growth inhibition", 95),
    ("COc1ccc2nccc(NCC3(O)CCN(CC(O)c4ccc5c(c4)NC(=O)CS5)CC3)c2n1 (stereo not given)", "growth inhibition", 100),
    ("COC(=O)/C=C/c1ccc(CCC(C)NCC(O)c2cccc(Cl)c2)cc1 (stereo not given)", "growth inhibition", 94),
    ("CCCCCCCCNCc1c(O)ccc2ccccc12", "growth inhibition", 99),
]

Turning to the following compound.
Lookup result for CCn1c(-c2ccccc2)cc2nnc3ccccc3c21 ; measured growth inhibition: 92

---

Experimental details: human hepatoma cell viability loss – ATP luminescence, cytotoxicity control for P. falciparum antimalarial project, primary screen (AID 2303);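 further: 0% = DMSO wells and 100% = digitonin-killed cells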
Assay conditions: HepG2 viability, 24-48 h, at 10 µM
Activity calls are given as the source filed them.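 How the source made its calls: active means inhibition above 50%; inactive means the rest.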
Output constraint: value belongs to yes (1) = active, no (0) = inactive

# Compound, Cat
measured = [
    ("CCCNc1nc(NCc2c(C)cccc2C)nc(NC(C)(C)C)n1", "no (0)"),
]

Prompt: Could you please tell me the result logged for CCOC(=O)c1cncc(/C=C/c2cc(C)cnc2N)c1 in this assay?
Completion: no (0)

Prompt: Entry CCc1cc(CNC2CCN(CCc3c(F)cnc4ccc(OC)nc34)CC2)cc2c1OCCO2 : call = ?
Completion: no (0)

Prompt: Recorded test outcome, item COc1cc2c(cc1S(=O)(=O)c1ccc(NC(=O)Nc3ccc(F)cc3)cc1)CCN(C)CC2
Completion: no (0)

Prompt: In this assay, the call recorded for COc1ccccc1/C=C/C(=O)NCCC1CCN(CCCCCNC(=O)/C=C/c2ccc(Cl)c(Cl)c2)CC1 was what?
Completion: no (0)

Prompt: Outcome? CC1(C)[C@H]2CC[C@@H](CNc3nc(NCC(=O)Nc4ccc5ccccc5c4)nc(N4CCC(N5CCCC5)CC4)n3)[C@@H]1C2
Completion: no (0)

Prompt: Hey, what did the test say about CN1CCc2cc(NS(=O)(=O)c3ccc(-c4ccc(Cl)s4)cc3)c(N3CCCCC3)cc2CC1 ?
Completion: no (0)

Prompt: Outcome logged for CC(C)CN(c1nc(C(=O)NNC(=O)[C@H](CC2CC2)NC(=O)c2cc3cc(OCCN4CCCCC4)ccc3o2)cs1)C1CC1 in this assay:
Completion: no (0)

Prompt: I would be grateful if you could indicate the recorded call for CNS(=O)(=O)CCNCc1ccc(-c2ccc3ncnc(Nc4ccc(OCc5ccccc5)cc4)c3c2)o1 .
Completion: no (0)

Prompt: Name the outcome recorded for CC(C)(C)C1CCC(CC2=C(C(=O)O)c3ccccc3C2=O)CC1 (stereo not given) in the assay.
Completion: no (0)

Prompt: Just curious, what result did Cc1nnsc1C(=O)Nc1cccc(-c2cccc(-c3nc4c(C)cccc4[nH]3)c2)c1 get here?
Completion: no (0)

Prompt: In this assay, the call recorded for COc1ccc(-c2cc(Nc3nc(-c4cccc(Cl)c4)nc4ccccc34)ccn2)cc1 was what?
Completion: no (0)

Prompt: // param item: CC(Cc1ccc(C(=O)N2CCN(C(=O)c3ccc(CC(C)NCCc4cccc(Cl)c4)cc3)CC2)cc1)NCCc1cccc(Cl)c1 (stereo not given) ; yields the recorded call
Completion: yes (1)

Prompt: Please share the test call associated with Cc1cccc(OCCCCON2C(N)=NC(N)=NC2(C)C)c1C .
Completion: yes (1)

Prompt: Can you look up the reported call for COc1ccc(C(=O)Nc2cc(Br)c3c(c2)CNCC3)cc1Br for me?
Completion: no (0)

Prompt: Dear colleague, could you share the recorded outcome for Oc1c(Br)cc2oc3c(c2c1CNCc1ccccc1)CCCC3 when you have a moment?
Completion: no (0)

Prompt: Tell me the assay call for Fc1cc(Cl)ccc1Nc1ccnc2cc(-c3ccc(CN4CCSCC4)o3)ccc12 please.
Completion: no (0)
